assay: Plasma pharmacokinetics in wildtype and Abcc4; conditions: male, C57BL/6, mouse, plasma, po, 10 mg/kg, Cmax, oral 10 mg/kg, Abcc4(−/−) mice
REPORTED_ENDPOINT: Cmax (ng/mL)
Kindly provide the numeric value in ng/mL only, without the unit symbol.

[in] Tell me measured Cmax for `Cc1nc(Nc2ncc(C(=O)Nc3c(C)cccc3Cl)s2)cc(N2CCN(CCO)CC2)n1` please.
[out] 48.1

----------
assay: Plasma pharmacokinetics in wildtype and Abcc4; conditions: male, C57BL/6, mouse, plasma, po, 10 mg/kg, Tmax, oral 10 mg/kg, Abcc4(−/−) mice
REPORTED_ENDPOINT: Tmax (h)
Kindly provide the numeric value in h only, without the unit symbol.

[in] Tell me measured Tmax for `Cc1nc(Nc2ncc(C(=O)Nc3c(C)cccc3Cl)s2)cc(N2CCN(CCO)CC2)n1` please.
[out] 2.19

----------
assay: Plasma pharmacokinetics in wildtype and Abcc4; conditions: male, C57BL/6, mouse, plasma, iv, 10 mg/kg, Cmax, i.v. 10 mg/kg, wildtype mice
REPORTED_ENDPOINT: Cmax (ng/mL)
Kindly provide the numeric value in ng/mL only, without the unit symbol.

[in] Tell me measured Cmax for `Cc1nc(Nc2ncc(C(=O)Nc3c(C)cccc3Cl)s2)cc(N2CCN(CCO)CC2)n1` please.
[out] 3390

----------
assay: Binding to serum proteins; assay type: in vitro ADME; conditions: male, C57BL/6, mouse, wildtype mice
REPORTED_ENDPOINT: fraction unbound
Give only the figure.

[in] Tell me measured fraction unbound for `Cc1nc(Nc2ncc(C(=O)Nc3c(C)cccc3Cl)s2)cc(N2CCN(CCO)CC2)n1` please.
[out] 0.087

----------
assay: Plasma pharmacokinetics in wildtype and Abcc4; conditions: male, C57BL/6, mouse, plasma, iv, 10 mg/kg, CL, i.v. 10 mg/kg, wildtype mice
REPORTED_ENDPOINT: clearance

[in] Tell me measured clearance for Cc1nc(Nc2ncc(C(=O)Nc3c(C)cccc3Cl)s2)cc(N2CCN(CCO)CC2)n1 [dasatinib, Dasatinib] please.
[out] 49.6 mL/min/kg

----------
assay: Binding to serum proteins; type: in vitro ADME; settings: male, C57BL/6, mouse, Abcc4(−/−) mice
REPORTED_ENDPOINT: fraction unbound

[in] Tell me measured fraction unbound for `Cc1nc(Nc2ncc(C(=O)Nc3c(C)cccc3Cl)s2)cc(N2CCN(CCO)CC2)n1` please.
[out] 0.0812

----------
test: Plasma pharmacokinetics in wildtype and Abcc4; conditions: male, C57BL/6, mouse, plasma, iv, 10 mg/kg, Cmax, i.v. 10 mg/kg, Abcc4(−/−) mice
REPORTED_ENDPOINT: Cmax
Show the value, then the unit it is measured in.

[in] Tell me measured Cmax for `Cc1nc(Nc2ncc(C(=O)Nc3c(C)cccc3Cl)s2)cc(N2CCN(CCO)CC2)n1` please.
[out] 3460 ng/mL
